// provenance: ChEMBL document CHEMBL3259636

- subject of test: Tyrosine-protein kinase SYK (Homo sapiens, UniProt P43405)
- assay: Inhibition of human recombinant SYK by HTRF assay
pIC50: −log10 of the molar value.
Catalogue of pIC50 readings, one per entry.

Recorded results for 3 compounds are shown here.
NC(=O)c1ccc(N[C@@H]2CCCC[C@@H]2N)cc1Nc1cccc(-c2ccc(F)c(F)c2)n1	> 8.82
COc1ccc(-c2cccc(Nc3cc(N[C@@H]4CCCC[C@@H]4N)ccc3C(N)=O)n2)cc1	> 8.82
Cc1cccc(Nc2cc(N[C@@H]3CCCC[C@@H]3N)ccc2C(N)=O)n1	< 8.82

Problem: Could you share which pIC50 value was measured for NC(=O)c1ccc(N[C@@H]2CCCC[C@@H]2N)cc1Nc1cccc(-c2cccc(F)c2)n1 ?
Result: > 8.82

Problem: Could you share which pIC50 value was measured for NC(=O)c1ccc(N[C@@H]2CCCC[C@@H]2N)cc1Nc1cccc(-c2ccccc2)n1 ?
Result: > 8.82
